# Test system: HEK293 cells
# test: Proliferation inhibition (IC50) on non-BCR-ABL-positive HEK293 cells
# runConditions: Homo sapiens, HEK293, read-out: IC50 (nM)/HEK293 cell line
quantityKind: IC50

| molecule | experimentalTarget | IC50 |
| --- | --- | --- |
| Cc1nc(Nc2ncc(C(=O)Nc3c(C)cccc3Cl)s2)cc(N2CCN(CCSc3cccc4c3C(=O)N(C3CCC(=O)NC3=O)C4=O)CC2)n1 (stereo not shown) | HEK293 cells | > 10000 nM |
| Cc1nc(Nc2ncc(C(=O)Nc3c(C)cccc3Cl)s2)cc(N2CCN(C(=O)CS(=O)(=O)c3cccc4c3C(=O)N(C3CCC(=O)NC3=O)C4=O)CC2)n1 (stereo not shown) | HEK293 cells | > 10000 nM |
| COc1cc(Nc2c(C#N)cnc3cc(OCCCN4CCN(C)CC4)c(OC)cc23)c(Cl)cc1Cl [Bosutinib, reference compound] | HEK293 cells | > 10000 nM |

In the following, a different molecule is considered.
Q: Endpoint output: IC50 of Cc1nc(Nc2ncc(C(=O)Nc3c(C)cccc3Cl)s2)cc(N2CCN(C(=O)CCCCSc3cccc4c3CN(C3CCC(=O)NC3=O)C4=O)CC2)n1 (stereo not shown) . Value?
A: > 10000 nM
